Data provenance: PubChem BioAssay AID256

# System: CD2F1 mice, L1210 leukemia ip, survival T/C
# METHOD: NCI In Vivo Anticancer Drug Screen. Data for tumor model L1210 Leukemia (intraperitoneal) in CD2F1 (CDF1) mice
# TEST_PARAMETERS: endpoint: mean survival time; dose: 3.12 mg/kg/injection; schedule: Q01DX009 (ip); vehicle: saline with Tween-80; higher = longer survival
# Procedure: The antitumor activity of compounds was measured in mice bearing transplantable tumors. Survival or tumor size were measured and the results are expressed as the measurement made in the treated group (T) divided by the measurement made in the vehicle treated control group (C). The tumor model used in this assay is L1210 Leukemia (intraperitoneal) in CD2F1 (CDF1) mice
Toxic doses and inconclusive results are not listed.
MEASUREMENT_NAME: T/C

Give me T/C for each of these compounds, listed below.
1. BrCC[Se]c1ccccc1
2. CC(C)[CH2][Sn]([CH2]C(C)C)([CH2]C(C)C)[O]C(=O)C1(C)CCCC2(C)C3CCC(C(C)C)=CC3=CCC12 (centres undefined)
3. S=C=NCCc1ccccc1
4. Cn1c2nc(=O)n(-c3ccccc3)c(=O)c-2nc2c1CCCC2

Output:
1. 105 % of control
2. 97 % of control
3. 93 % of control
4. 100 % of control
